So I've got a bunch of binders here, and I need their SARS-CoV-2 focus reduction test, IC50 values.
assayed_system: SARS-CoV-2 spike (S) glycoprotein on virus (neutralization assays) (SARS-CoV-2, UniProt P0DTC2 14-1273)
protocol_notes: cell-based or functional assay
One number for each entry, in µg/mL.

Check out these entries, answers already filled in.
Indicate its recorded SARS-CoV-2 focus reduction test, IC50; the binder in question is COV2-2514 (antibody, V domains shown) VH: EVQLVESGGGVVRPGGSLRLSCAASGFIFDDYDMTWVRQAPGKGLEWVSGINWNGGSTGYADSVKGRFTISRDNAKNSLYLQMNSLRAEDTALYHCAVIMSPIPRYSGYDWAGDAFDIWGQGTMVTVSS VL: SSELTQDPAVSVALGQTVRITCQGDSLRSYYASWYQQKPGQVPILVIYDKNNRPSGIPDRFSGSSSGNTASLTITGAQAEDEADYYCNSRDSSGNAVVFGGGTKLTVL
0.084

Indicate its recorded SARS-CoV-2 focus reduction test, IC50; the binder in question is COV2-2952 (antibody, V domains shown) VH: EVQLVESGGGLVQPGGSLRLSCAASGLTVRSNYMTWVRQTPGKGLEWVSVIYSGGSTFYADSVKGRFTISRDNSKNTVYLQMNSLRAEDTAVYYCARDLVTYGLDVWGQGTTVTVSS VL: DIQLTQSPSFLSASVGDRVTITCRASQGISNYLAWYQQKPGTAPNLLIYAASTLQSGVPSRFSGSGSGTEFTLTISSLQPEDFATYYCQLLNSHPLTFGQGTRLEIK
0.089

***
Indicate its recorded SARS-CoV-2 focus reduction test, IC50; the binder in question is COV2-2165 (antibody, V domains shown) VH: EVQLVESGGGLVQPGGSLRLSCAASGLTVRSNYMTWVRQTPGKGLEWVSVIYSGGSTFYADSVKGRFTISRDNSKNTVYLQMNSLRAEDTAVYYCARDLVTYGLDVWGQGTTVTVSS VL: DIQLTQSPSFLSASVGDRVTITCRASQGISNYLAWYQQKPGTAPNLLIYAASTLQSGVPSRFSGSGSGTEFTLTISSLQPEDFATYYCQLLNSHPLTFGQGTRLEIK
0.185

These data points were gathered from patent US20210300999A1.
